Biological target: T1, human Nectin-4 extracellular antigen hNectin-4-His (human, UniProt Q96NY8 32-349)
T1 construct: C-terminal 8xHis tag included
T1 sequence: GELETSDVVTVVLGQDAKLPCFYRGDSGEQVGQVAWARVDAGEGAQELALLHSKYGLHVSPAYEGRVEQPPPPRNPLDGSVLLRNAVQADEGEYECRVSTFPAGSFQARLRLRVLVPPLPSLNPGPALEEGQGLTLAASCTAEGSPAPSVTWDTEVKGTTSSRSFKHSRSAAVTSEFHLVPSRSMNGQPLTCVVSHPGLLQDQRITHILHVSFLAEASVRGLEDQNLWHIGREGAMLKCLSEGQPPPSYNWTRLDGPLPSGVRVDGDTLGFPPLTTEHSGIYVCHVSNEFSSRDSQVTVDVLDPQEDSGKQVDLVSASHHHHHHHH
Test: ELISA, coated hNectin-4-His
Consider the following binders; for each one, report its EC50.
// return numeric value only (unit: µg/mL, not printed)

# query: EC50 of entry antibody 1F3-1B1 (antibody, human IgG1, kappa, V domains shown) VH: EVQLVESGGGLVQPGGSLRLSCAASGFTFGTYGMSWVRQAPGKGLEWVSGIKPGDSTTYYADSVKGRFTISRDNSKNTLYLQMNSLRAEDTAVYYCARAELLAFDVYTASDYWGQGTLVTVSS VL: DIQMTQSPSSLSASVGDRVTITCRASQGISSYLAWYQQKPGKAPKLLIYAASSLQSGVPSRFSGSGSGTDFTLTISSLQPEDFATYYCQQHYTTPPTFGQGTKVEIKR
0.016

# query: EC50 of entry antibody 1F3-2F3 (antibody, human IgG1, kappa, V domains shown) VH: EVQLVESGGGLVQPGGSLRLSCAASGFNFSDYGMSWVRQAPGKGLEWVSRIDWDGGNTRYADSVKGRFTISRDNSKNTLYLQMNSLRAEDTAVYYCARAELLAFDVYTASDYWGQGTLVTVSS VL: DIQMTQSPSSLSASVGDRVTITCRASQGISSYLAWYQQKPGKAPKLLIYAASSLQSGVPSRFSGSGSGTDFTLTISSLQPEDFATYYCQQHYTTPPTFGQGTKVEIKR
0.011

# query: EC50 of entry antibody 1G8-2H4 (antibody, human IgG1, kappa, V domains shown) VH: EVQLVESGGGLVQPGGSLRLSCAASGDSFTGYAMSWVRQAPGKGLEWVSAISGSGGSTYYADSVKGRFTISRDNSKNTLYLQMNSLRAEDTAVYYCARQTEDRSYGYDLDYWGQGTLVTVSS VL: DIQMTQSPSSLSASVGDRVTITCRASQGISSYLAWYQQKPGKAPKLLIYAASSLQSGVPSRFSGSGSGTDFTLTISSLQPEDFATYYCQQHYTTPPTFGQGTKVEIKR
0.039
